This collection of values is drawn from PubChem BioAssay (NCI).

tested on: UACC-257 melanoma; experiment: NCI tumour cell line growth inhibition, 48 h
observed-property: TGI

Here's what some known entries look like.
[[record]]
item_smiles = "O=C(COC(=O)c1cccc2c(=O)c3ccccc3[nH]c12)Nc1ccc(S(=O)(=O)Nc2ncccn2)cc1"
reading = "> 100 µM"

[[record]]
item_smiles = "N#Cc1c2ccc([N+](=O)[O-])cc2c(=O)n2c1sc1ccccc12"
reading = "> 100 µM"


# next molecule below
### Prompt Record request: TGI value, item Cc1ccc2c(=O)c(C(=O)NNC(=S)NC3CCCCC3)c[nH]c2n1
### Response > 100 µM

###

system: NCI-H522 lung; assay: NCI tumour cell line growth inhibition, 48 h
Below, each entry is listed alongside its reported TGI.

Here's what some known entries look like.
[[record]]
compound = "O=C1CN(c2ccccc2)C(=O)CN1CCN1CC(=O)N(c2ccccc2)CC1=O"
reading = "> 100 µM"

[[record]]
compound = "C=CCN(c1cc(OC)c2c(c1[N+](=O)[O-])C(C)(SC)C(=O)N2)S(C)(=O)=O (stereo not drawn)"
reading = "> 100 µM"


# next compound below
### Prompt Record request: TGI value, item NC(N)=NC(N)=Nc1ccc(S(N)(=O)=O)cc1
### Response > 100 µM
